B1: RAB22A (parent)
chain: FVEDSFDPNINPTIGASFMTKTVQ

- Variants of: B1
- test-description: protein stability index of a GFP-peptide fusion (GPS, HEK-293T) (PSI 1-6); higher = more stable;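 also: lentivirally expressed fusions sorted by FACS into six bins by GFP to DsRed ratio, PSI derived from sequencing read proportions per bin multiplied by bin number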
- reported-conditions: c terminus: a fixed tail appended
Answer not met if protein stability index is under 2, and met if it is 2 or more.

Worked cases, answers included:
In [3]: df
Out[3]:
   change  classification
0    I10L             met
1    G15N             met

Determine whether measured protein stability index meets or exceeds 2 for V2C
met

Determine whether measured protein stability index meets or exceeds 2 for N11P
met

Determine whether measured protein stability index meets or exceeds 2 for M19A
met

Determine whether measured protein stability index meets or exceeds 2 for V2S
met

Determine whether measured protein stability index meets or exceeds 2 for T22P
met

Determine whether measured protein stability index meets or exceeds 2 for P8I
not met

Determine whether measured protein stability index meets or exceeds 2 for P12V
met

Determine whether measured protein stability index meets or exceeds 2 for K21Y
not met
